Listed molecules paired with reported melting point

Solved cases below.
molecule: CC(C)NS(=O)(=O)c1cc(-c2ncnc(C(F)F)c2Cl)c(F)cc1Cl
melting point: 172 to 175 °C

molecule: CCCOCc1nc(C(C)(C)O)c(C(=O)OCCC)[nH]1
melting point: 72 to 73 °C

Reported melting point of CCOC(=O)c1c(N2CCN(C(=O)c3ccco3)CC2)c2cc(F)cnc2n(Cc2ccccc2)c1=O : 119 °C

Summary for this molecule, CCOC(=O)CC(c1ccccc1)N(C(=O)CNC(=O)Nc1cccc(C)c1)c1ccccc1 (racemic) : melting point is 146 °C

---

Catalogue of compounds with associated melting point

Some entries whose results are on file:
compound: NNC(=O)CCc1csc(NC(N)=NCC(F)(F)F)n1
melting point: 125 to 126 °C
--
compound: CCOC(=O)c1cc(C)c(OCCCc2cc(C)no2)c(C)c1
melting point: 49 to 50 °C
--
compound: COC(=O)c1cc(O)c2ccc(OCc3ccccc3)cc2c1
melting point: 179 to 180 °C
--
compound: Cc1cc(C(F)(F)F)nn1CC(=O)N1CCC(c2csc(NC(=O)Cc3c(F)cccc3Cl)n2)CC1
melting point: 249 to 251 °C

The reported melting point of the compound Cc1cc(CN2CCN(C(C)C)CC2)cc2c1Cc1c(-c3ccsc3)n[nH]c1-2 was 113 to 114 °C

Value source: a melting point compilation (Tetko et al.; mined from patent text by program, amines drawn as free bases though some values may be those of a salt)
